Origin of values: paper PMC9323974

Answer each item with its documented kq BSA-quenching constant.
biological target: BSA (Bos taurus, UniProt P02769); construct: purchased Sigma-Aldrich Co; assay: BSA fluorescence quenching; format: binding, bovine
Sequence (P02769 25-607): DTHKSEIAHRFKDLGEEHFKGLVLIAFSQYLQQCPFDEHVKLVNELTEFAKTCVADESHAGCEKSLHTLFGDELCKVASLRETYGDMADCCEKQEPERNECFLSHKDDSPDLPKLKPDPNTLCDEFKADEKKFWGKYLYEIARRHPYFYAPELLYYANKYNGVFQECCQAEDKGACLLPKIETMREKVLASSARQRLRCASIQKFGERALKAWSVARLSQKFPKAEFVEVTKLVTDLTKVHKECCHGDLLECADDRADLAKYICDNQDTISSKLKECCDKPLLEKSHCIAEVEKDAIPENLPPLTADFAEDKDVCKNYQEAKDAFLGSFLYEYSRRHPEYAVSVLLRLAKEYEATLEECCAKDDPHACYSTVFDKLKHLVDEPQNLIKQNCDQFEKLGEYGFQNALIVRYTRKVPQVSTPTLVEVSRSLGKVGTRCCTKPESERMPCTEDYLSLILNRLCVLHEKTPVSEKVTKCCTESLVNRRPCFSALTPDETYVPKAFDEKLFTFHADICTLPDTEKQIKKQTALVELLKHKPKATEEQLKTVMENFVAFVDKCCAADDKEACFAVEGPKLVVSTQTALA

[[record]]
compound = "O=Cc1cc(F)ccc1O [5-F-saloH, 5-fluoro-salicylaldehyde, reference compound]"
reportedmeasurement = "1.98 (±0.08) × 10^12 M^−1 s^−1"

[[record]]
compound = "O=Cc1cc(F)ccc1[O-].O=Cc1cc(F)ccc1[O-].[Pd+2] [Complex 4, [Pd(5-F-salo)2]]"
reportedmeasurement = "2.24 (±0.14) × 10^13 M^−1 s^−1"

[[record]]
compound = "O=Cc1cc(Cl)cc(Cl)c1[O-].O=Cc1cc(Cl)cc(Cl)c1[O-].[Pd+2] [Complex 3, [Pd(3,5-diCl-salo)2]]"
reportedmeasurement = "1.11 (±0.04) × 10^14 M^−1 s^−1"

[[record]]
compound = "CCN(CC)c1ccc(C=O)c(O)c1 [4-Et2N-saloH, 4-diethylamino-salicylaldehyde, reference compound]"
reportedmeasurement = "1.41 (±0.06) × 10^13 M^−1 s^−1"

[[record]]
compound = "CCN(CC)c1ccc(C=O)c([O][Pd][O]c2cc(N(CC)CC)ccc2C=O)c1 [Complex 1, [Pd(4-Et2N-salo)2]]"
reportedmeasurement = "5.72 (±0.44) × 10^13 M^−1 s^−1"

[[record]]
compound = "COc1ccc(C=O)c([O-])c1.COc1ccc(C=O)c([O-])c1.[Pd+2] [Complex 5, [Pd(4-OMe-salo)2]]"
reportedmeasurement = "2.17 (±0.09) × 10^14 M^−1 s^−1"


Turning to the following compound.
Documented kq BSA-quenching constant of O=Cc1cc(Br)cc(Br)c1[O][Pd][O]c1c(Br)cc(Br)cc1C=O [Complex 2, [Pd(3,5-diBr-salo)2]] : 2.11 (±0.08) × 10^14 M^−1 s^−1

* * *

assay: Reduction of hydrogen peroxide; details: compound 0.1 mM
Labelling field: enter Met if recorded H2O2% is less than 50%. Enter Not met if it equals or exceeds that cut-off.

Example cases with answers are listed next.
[[record]]
compound = "O=Cc1cc(F)ccc1[O-].O=Cc1cc(F)ccc1[O-].[Pd+2] [Complex 4, [Pd(5-F-salo)2]]"
group = "Met"

[[record]]
compound = "CCN(CC)c1ccc(C=O)c([O][Pd][O]c2cc(N(CC)CC)ccc2C=O)c1 [Complex 1, [Pd(4-Et2N-salo)2]]"
group = "Met"

[[record]]
compound = "CCN(CC)c1ccc(C=O)c(O)c1 [4-Et2N-saloH, 4-diethylamino-salicylaldehyde, reference compound]"
group = "Not met"


Please determine if O=Cc1cc(F)ccc1O [5-F-saloH, 5-fluoro-salicylaldehyde, reference compound] is below 50% in terms of H2O2%.
Not met

Please determine if O=C1O[C@H]([C@@H](O)CO)C(O)=C1O [L-ascorbic acid, reference compound] is below 50% in terms of H2O2%.
Not met

Please determine if COc1ccc(C=O)c(O)c1 [4-OMe-saloH, 4-methoxy-salicylaldehyde, reference compound] is below 50% in terms of H2O2%.
Not met

Please determine if COc1ccc(C=O)c([O-])c1.COc1ccc(C=O)c([O-])c1.[Pd+2] [Complex 5, [Pd(4-OMe-salo)2]] is below 50% in terms of H2O2%.
Not met

* * *

test system: Escherichia coli NCTC 29212; assay: MIC determination; format: cell-based; conditions: 24 h, value in parentheses; read-out: MIC E. coli
Answer each item with its documented MIC.
One number for each entry, in µM.

[[record]]
molecule = "COc1ccc(C=O)c([O-])c1.COc1ccc(C=O)c([O-])c1.[Pd+2] [Complex 5, [Pd(4-OMe-salo)2]]"
outcomemeasure = "MIC"
reportedmeasurement = 245

[[record]]
molecule = "O=Cc1cc(Br)cc(Br)c1[O][Pd][O]c1c(Br)cc(Br)cc1C=O [Complex 2, [Pd(3,5-diBr-salo)2]]"
outcomemeasure = "MIC"
reportedmeasurement = 38

[[record]]
molecule = "CCN(CC)c1ccc(C=O)c([O][Pd][O]c2cc(N(CC)CC)ccc2C=O)c1 [Complex 1, [Pd(4-Et2N-salo)2]]"
outcomemeasure = "MIC"
reportedmeasurement = 204

[[record]]
molecule = "O=Cc1cc(Cl)cc(Cl)c1[O-].O=Cc1cc(Cl)cc(Cl)c1[O-].[Pd+2] [Complex 3, [Pd(3,5-diCl-salo)2]]"
outcomemeasure = "MIC"
reportedmeasurement = 51


Turning to the following molecule.
Documented MIC of O=Cc1cc(F)ccc1[O-].O=Cc1cc(F)ccc1[O-].[Pd+2] [Complex 4, [Pd(5-F-salo)2]] : 259

* * *

biological target: HSA (Homo sapiens); construct: purchased Sigma-Aldrich Co; experiment: HSA fluorescence quenching; type: binding; conditions: HSA 3 μM
Answer each item with its documented ΔΙ/Ιο (%) HSA fluorescence quenching.
Numbers only, in %.

[[record]]
molecule = "O=Cc1cc(Cl)cc(Cl)c1[O-].O=Cc1cc(Cl)cc(Cl)c1[O-].[Pd+2] [Complex 3, [Pd(3,5-diCl-salo)2]]"
reportedmeasurement = 90.4


For each of the items listed, what is its ΔΙ/Ιο (%) HSA fluorescence quenching?
1. O=Cc1cc(Br)cc(Br)c1[O][Pd][O]c1c(Br)cc(Br)cc1C=O [Complex 2, [Pd(3,5-diBr-salo)2]]
2. O=Cc1cc(F)ccc1[O-].O=Cc1cc(F)ccc1[O-].[Pd+2] [Complex 4, [Pd(5-F-salo)2]]
3. CCN(CC)c1ccc(C=O)c([O][Pd][O]c2cc(N(CC)CC)ccc2C=O)c1 [Complex 1, [Pd(4-Et2N-salo)2]]
4. COc1ccc(C=O)c([O-])c1.COc1ccc(C=O)c([O-])c1.[Pd+2] [Complex 5, [Pd(4-OMe-salo)2]]

1. 88.8
2. 75.7
3. 91.8
4. 92.2

* * *

Answer each item with its documented kq HSA-quenching constant.
molecular target: HSA (Homo sapiens, UniProt P02768); construct: purchased Sigma-Aldrich Co; test: HSA fluorescence quenching; type: binding
Sequence (P02768 25-609): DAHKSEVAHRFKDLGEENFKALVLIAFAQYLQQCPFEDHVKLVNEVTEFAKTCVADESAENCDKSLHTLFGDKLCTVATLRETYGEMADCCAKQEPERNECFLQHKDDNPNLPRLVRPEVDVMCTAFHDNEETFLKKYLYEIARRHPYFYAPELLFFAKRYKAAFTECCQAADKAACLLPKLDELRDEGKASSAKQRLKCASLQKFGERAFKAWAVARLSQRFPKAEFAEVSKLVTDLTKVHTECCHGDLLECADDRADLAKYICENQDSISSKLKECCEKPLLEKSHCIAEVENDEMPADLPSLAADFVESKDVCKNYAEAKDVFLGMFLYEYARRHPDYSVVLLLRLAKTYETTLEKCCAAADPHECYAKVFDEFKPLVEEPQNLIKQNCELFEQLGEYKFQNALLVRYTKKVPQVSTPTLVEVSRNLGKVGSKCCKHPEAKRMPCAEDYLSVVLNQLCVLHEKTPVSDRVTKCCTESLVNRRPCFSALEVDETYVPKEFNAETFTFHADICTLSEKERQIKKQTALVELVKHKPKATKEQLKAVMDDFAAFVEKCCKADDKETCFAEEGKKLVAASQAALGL

Worked cases, kq HSA-quenching constant given:
[[record]]
compound = "CCN(CC)c1ccc(C=O)c([O][Pd][O]c2cc(N(CC)CC)ccc2C=O)c1 [Complex 1, [Pd(4-Et2N-salo)2]]"
reportedmeasurement = "3.48 (±0.14) × 10^13 M^−1 s^−1"

[[record]]
compound = "COc1ccc(C=O)c([O-])c1.COc1ccc(C=O)c([O-])c1.[Pd+2] [Complex 5, [Pd(4-OMe-salo)2]]"
reportedmeasurement = "6.69 (±0.23) × 10^13 M^−1 s^−1"

[[record]]
compound = "COc1ccc(C=O)c(O)c1 [4-OMe-saloH, 4-methoxy-salicylaldehyde, reference compound]"
reportedmeasurement = "2.28 (±0.13) × 10^12 M^−1 s^−1"


For each of the items listed, what is its kq HSA-quenching constant?
1. O=Cc1cc(F)ccc1O [5-F-saloH, 5-fluoro-salicylaldehyde, reference compound]
2. O=Cc1cc(Br)cc(Br)c1[O][Pd][O]c1c(Br)cc(Br)cc1C=O [Complex 2, [Pd(3,5-diBr-salo)2]]
3. CCN(CC)c1ccc(C=O)c(O)c1 [4-Et2N-saloH, 4-diethylamino-salicylaldehyde, reference compound]
4. O=Cc1cc(F)ccc1[O-].O=Cc1cc(F)ccc1[O-].[Pd+2] [Complex 4, [Pd(5-F-salo)2]]
5. O=Cc1cc(Cl)cc(Cl)c1[O-].O=Cc1cc(Cl)cc(Cl)c1[O-].[Pd+2] [Complex 3, [Pd(3,5-diCl-salo)2]]

1: 1.96 (±0.07) × 10^12 M^−1 s^−1; 2: 4.22 (±0.13) × 10^13 M^−1 s^−1; 3: 2.10 (±0.22) × 10^13 M^−1 s^−1; 4: 1.82 (±0.06) × 10^13 M^−1 s^−1; 5: 5.00 (±0.12) × 10^13 M^−1 s^−1

* * *

Target: HSA (Homo sapiens, UniProt P02768)
Construct: purchased Sigma-Aldrich Co
Test: HSA fluorescence quenching
Type: binding
Protocol: S4 Interaction with serum albumins S4.1 Study of the affinity for serum albumins The albumin–binding study for the compounds was carried out by fluorescence emission quenching experiments using BSA (3 μM) or HSA (3 μM) in buffer solution (15 mM trisodium citrate and 150 mM NaCl at pH 7.0). […] The fluorescence emission spectra were recorded between 300–500 nm with excitation wavelength of 295 nm. […]
outcomeMeasure: pKd
Give bare numbers, as −log10 of the molar value.

For each of the items listed, what is its pKd?
1. O=Cc1cc(F)ccc1O [5-F-saloH, 5-fluoro-salicylaldehyde, reference compound]
2. COc1ccc(C=O)c(O)c1 [4-OMe-saloH, 4-methoxy-salicylaldehyde, reference compound]
3. CCN(CC)c1ccc(C=O)c(O)c1 [4-Et2N-saloH, 4-diethylamino-salicylaldehyde, reference compound]

4.67
4.99
5.61

* * *

Answer each item with its documented K HSA-binding constant.
Target: HSA (Homo sapiens, UniProt P02768)
Construct: purchased Sigma-Aldrich Co
Test: HSA fluorescence quenching
Format: binding
Details: Scatchard
Experimental: S4 Interaction with serum albumins S4.1 Study of the affinity for serum albumins The albumin–binding study for the compounds was carried out by fluorescence emission quenching experiments using BSA (3 μM) or HSA (3 μM) in buffer solution (15 mM trisodium citrate and 150 mM NaCl at pH 7.0). […] The fluorescence emission spectra were recorded between 300–500 nm with excitation wavelength of 295 nm. […]

[[record]]
compound = "O=Cc1cc(Cl)cc(Cl)c1[O-].O=Cc1cc(Cl)cc(Cl)c1[O-].[Pd+2] [Complex 3, [Pd(3,5-diCl-salo)2]]"
testtarget = "HSA (Homo sapiens, UniProt P02768)"
outcomemeasure = "K HSA-binding constant"
reportedmeasurement = "4.10 (±0.17) × 10^5 M^−1"


For each of the items listed, what is its K HSA-binding constant?
1. O=Cc1cc(Br)cc(Br)c1[O][Pd][O]c1c(Br)cc(Br)cc1C=O [Complex 2, [Pd(3,5-diBr-salo)2]]
2. CCN(CC)c1ccc(C=O)c([O][Pd][O]c2cc(N(CC)CC)ccc2C=O)c1 [Complex 1, [Pd(4-Et2N-salo)2]]
3. COc1ccc(C=O)c([O-])c1.COc1ccc(C=O)c([O-])c1.[Pd+2] [Complex 5, [Pd(4-OMe-salo)2]]
4. O=Cc1cc(F)ccc1[O-].O=Cc1cc(F)ccc1[O-].[Pd+2] [Complex 4, [Pd(5-F-salo)2]]

4.12 (±0.15) × 10^5 M^−1
1.25 (±0.06) × 10^5 M^−1
3.56 (±0.12) × 10^5 M^−1
1.38 (±0.05) × 10^5 M^−1
